assay: yeast display, Sf9 membrane polyspecificity reagent, FACS + sequencing; frameworks hold sequencing errors
Measured attribute: polyreactivity (PSR sort gate)

Some solved entries appear below for comparison.
* QVQLVESGGGLVQAGGSLRLTCAASGRTFYIYTMGWYRQAPGKERELVAAISSSGDSTYYADSVKGRFTISRDNAKYTVYLQMISLKPEDTAVYYCAAEYAYHHVGFGYWGQGTQVTVSS | low polyreactivity
* QVQLVESGGGLVQAGGSLRLSCAASGFIFEDYAMGWYRQAPGKERELVAAITWRGGRTYYADSVKGRFTISRDNAKNTVYLQMNSLKPEDTAVYYCRPQVYSYASRYGYWGQGTQVTVLS | low polyreactivity
* QVQLVESGGRLVQAGGSLRLSCAASGITLNRNAMGWYRQEPGKESELVARISRRGGTTYYADSVKGRFTISRYYAKNTVYLQMNSLKPEDTAVYYCAASYSDRKLTDYWGQRTQVTVSS | high polyreactivity
* QVHLVESGGGLLQAGGSLRLSCAASGRTFGHNAMGWNRQAPGKERELVAAISSGGNTYYADSVKGRFTISRDNAKNTVYLQMNSLKPEDTAVYYCAAVTVIGGEYDYWGQGTQVTVSS | low polyreactivity
* QVQLVESGGGLVQAGGSLRLSCAASGSIFGRYGKGWYRQAPGKERELVAAITSGTRTNYADSVKGRFTISRDNAKITVYLQMNSLTPEDTAVYYSAKQSYRRLPNTPYNYWGQGTQVTVSS | low polyreactivity

# polyreactivity (PSR sort gate) lookup, item "HVHLVESGGGLVQAGGSLRLSCAASGRTFSTYAMGRYRQAPGKERELVATIRVSGSSTYYADSVKGRFTISRDNAKNTVYLQMNSLKQEDTEVYYCANRGLSRYYDYYYWGQGTQVTVSS"
high polyreactivity

For "QVQLVESGGGLVQAGGSLRLSCAASGFIFLGYAMGWYRQAPGKERELVAAISSDSDTNYADSVKGRFTISRDNAKNTVFLQMNSLKPEDTAVYYCNADIDSYREMDYWGQGTLVTVSS" then?
low polyreactivity

* * *

experiment: yeast display, Sf9 membrane polyspecificity reagent, FACS + sequencing; frameworks hold sequencing errors
Measured attribute: polyreactivity (PSR sort gate)

Worked examples follow.
* QVQLVESGGGLVQAGGSLRLSCAASGSIFENNAMGWYRQAPGKERELVAAISSDDTTNYADSVKGRFTISRDNAKNTVYLQMNSLKPEDTAVYYCATDYYVYGYPYDYGYWGQGTQVTVSS | low polyreactivity
* QLQLVDSGGGLVQAGGSLRLSCAASGLIFPAYTMGWYRQAPGKQRELVAAISRSGGSTYYADSVKGRFTISRDNAKNTVYLQMNSLKTEDTAVYYCAAFYSGGYDYWGQGTQVTVSS | high polyreactivity
* QVQLVESGGGLVQAGGSLRLSCAASGSTFIGYTMGWYRQAPGKERELVAAIRYSSGRTYYADSVKGRFTISRDNAKNTVYLQMNSLKPEDTAVYYCAAANPRDHRGANDYWGQGTQVTVSS | high polyreactivity
* QVQLVESGGGLVQAGGSLRLSCAASGITFDKNTMGWYRQAPGKERELVAAISARGGSTYYADSVKGRFTISRDNAKYTVYLQMNSLKPEDTAVYYCAATRSYSYRTVYRRKYNYWGQGTQVTVSS | high polyreactivity
* QVQLVESGGGLVQAGGSLRLSCAASGSIFVTYAMGWYRQAPGKERELVAAISTSGGSTYADSVKGRFTISRDNAKNTVYLQMNSLKPEDTAVYYCNADDPGYAVPWYWFKSDYWGQGTQVTVSS | low polyreactivity
* QVQLVESGGCLVQAGGSLRLSSAASGSTFRQYAMGWYRQAPGKERELVAAITWRGDNTYYADSVKGRFTISRDNAKNSVYLQMNSLKPEDTAVYYCAARWSYRLYWGYGYWGQGTQVTVSS | low polyreactivity
* QVQLLESGGGLVQAGGSLRLSGAASGRIFRWYAMGWYRQAPGKEREFVAAITSSGGSTYYADSVMGRFTISRDNAKNTVYLQMNSLKPDDTAGYYCAALVYLGGSYSRGYDWGQGTQVTVSS | high polyreactivity
* QVQLVESGGGLVQAGGSLRLSCAASGRIFYDYAMGWYRQAPGKEREFVAAIRWRGGSTYYADSVKGRFTISRDNAKNTVYLQMNSLKPEDTAVYYCATKSYYKFGYWGQGTQVTVSS | high polyreactivity

Request the reported polyreactivity (PSR sort gate) associated with "QLQLEDSGGGLVQAGGSLRISCAASARIVGGNTMGWYRQAPGKERELVAAITYRGGSTYYADSVKGRFTISRDNAKYTVYLQINSLKPVATAVYYCATAGYWGGDYWGQGTQVTVSS"
low polyreactivity

Same read-out for "QVQLVESGGGLLQAGGSLRVSCAASGSIFHENAMGWYRQAPGKERELVAAIDQTGSTYADSVKGRFTISRDNAKNTVYLQMNSLKPEDTAVYYCAKGDVSLDYPSLEFDYWGQGSQVTVSS" ?
low polyreactivity

Also "QVQLVESGGGLVQAGGSLRLSCAASGRTFYYYAMGWYRQAPGKERELVAVIRSSGDSTYYADSVKGRFTISRDNAKNTVYLQMNSLKPEDTAVYYCNADDWAYGMDYWGQGTQVTVSS" ?
low polyreactivity

Proceed to "QVQLQESGGGLEKACGSLRLSCAASVNISPRDAMCWYRQAPGEERDLVASNAYSAITYYADGVKGRYTISRDNAKNTVYLHMNSLKPEDTEVYYCAVYQFPYPVFPAYCGQGTQVTVSS"
low polyreactivity

Follow-up item: "QVQLVESGGGLVQAGGSLRLSCAASGSTFQGYAMGWYRQAPGNERELVAAISRRGGSTYYADSVKGRFTISRDNAKNTVYFQKNSLKPEDTAVYYCNAVVRTIVLYYWGQGTQVTVSS"
high polyreactivity

Next: "QVQLVESAGGLVQAGGSLRLSCAASGRNFYYYAMGWYRQAPGKERELVAAISIGGITYADSVKGRFTISRDNAKNTVYLQMNRLKPEDTAVYYCAATARQSRGRYYWGQGTQVTVSS"
low polyreactivity

// next record "QVQLVESGGGLVQAGGSLRLSCAASGSISSKNAMGWYRQPPGKERQFDAVISGTGGSTYYADSVKGRFTISRDNAKNTVYLQMNSLKPEDTAVYYCAAAASSIVSYGYTWTYGYWGLGTQVTVSS"
low polyreactivity

Next sequence: "QVQLVESGGGLVQAGGSLRLSCAASGSIFDVYAMGWSRQAAGTERELVAAIDSGGSSTYYADSVKGRFTISRDNAKNSVYLQMNSLKPEDTAVYYCAARPYYSWNYDYWGQGTQVTVSS"
low polyreactivity

Also "QVQLVESGGGLVQAGGSLRLSCAASGGILVGYAMGRYRQAPGKERELVAANNYSGGSTNYADSVKGRFTISRDNAKYSVYLQMNSLKPEDTAVYFCAARSTARYGYWGQGTQVTVSS" ?
low polyreactivity

And for "QVQLVESGGGLVQAGGSLRLSCAASGRIFDYYTMGWYRQAPGKERELVAAINWSGGSTYYADSVKGRITISRDKAKNTVYLQMNSLKPEDTAVYYCATLSYGREYGYWGQGTQVTVSS" ?
low polyreactivity

And for "QVQLVESGGGLVQAGGSLRLICAASGRIFRPYAMGWYRQAPGKERELVAAISSSGGSTYYADSVKGRFTISRDNAKNTVYLQMNSLKPEDTAVYYCATYFARGRRYDYWGQGTQVTVSS" ?
high polyreactivity

Repeat for the following sequence: "QVQLVESGGGLVQAGGSLRLSCAASGSTFYLNAMGWYRQAPGKERELVAAISSGGNTNYADSVKGRFTISRDNAKNTVYLQMNSLKPEDTAVYYCAAVYLSWYGLGEYWGQGTQVTVSS"
low polyreactivity

Now consider "QVQLVESGGGLVQAGGSLRLSCAASGFTFYRNAMGWYRQAPGKERELVAAISWRGSSTYYADSVKGRFTISRDNAKNTVYLQMNSLKPEDTAVYYCATEYPYWYYYRMDYWGQGTQVTVSS" .
high polyreactivity

Each recorded value in this set is attributed to the nanobody polyreactivity screen of Harvey et al. (2022).
